test: folding stability dG unfold (combined trypsin and chymotrypsin); higher = more stable
recorded-metric: folding stability dG unfold

Consider the sequence shown here: SAGGIVEEAIKKLFESGIPLSEEEIKEIIEKAIKEENEKKGKKIEKIEIGEIKFNPETGYAPIKIKASAGGS [r16_365_TrMRF] What is its recorded folding stability dG unfold? 0.856 kcal/mol

Look at this sequence and give its reported folding stability dG unfold. SAGGSAGGSAGKKKKKKLVRVRITYKNGKKKEFVFKTKEEAEKALKEEFNIEKIEIEEIPSAGGSAGGSAGG [r17_508_TrROS_Hall] 3.43 kcal/mol

So what does the record say about folding stability dG unfold for SMIVRVEGDKTTITLTLTTTTTLTDPTNPSLTTTVSKTVPRTLTLDPNDPAALAALIAALPPGAVPTIVGSA [r9_476_JUSTAS] ? 1.43 kcal/mol

Entry SAGGSAGGSAGGSRMRLEITVRDENGLLVRLEVEFEEKDGELEMKVRAEVFPLPEEEEESAGGSAGGSAGGS [r4_168_TrROS_Hall] has what folding stability dG unfold? 2.44 kcal/mol

Endpoint output: folding stability dG unfold of SAGGSAGGSASMKEVTILVKKKLPGGEEEESVTTVTLNPNEIDKVKEEFKKKGWEVVKVVSSAGGSAGGSAG [r3_453_JUSTAS] . Value? 1.56 kcal/mol

I would be grateful if you could share the reported folding stability dG unfold for SMEEEEEEPEPAPVVVITVEPGETVEQVRAAAREAAEKGMRIVITGLSEEEAKAIAEELGLDVEIEVVEPSA [r9_1207_TrROS_Hall] . 2.69 kcal/mol

Given the sequence SAGGKLTPEEIEELAKKLAEELRKEGKEVEIEVEIEVDGKLIKIKMKIDPKTKKIEIVKIEVYPKEDLSAGG [r13_37_TrROS_Hall] , what is its reported folding stability dG unfold? 3.58 kcal/mol

So what's the measured folding stability dG unfold for this one? SAGGSAGGSAGGSPFWRIKIENPGNGKEITVMVPPDDIDKAKEEAEQEGLKKIEIEPVPSAGGSAGGSAGGS [r4_102_TrROS] -0.993 kcal/mol

Dear colleague, I am looking for the recorded folding stability dG unfold of the following sequence: SAGGLTPEQWREIAKNFANELAKEYQERGPNVKIDVEVDPEEGYFKIKVENNDENMPRTITIPWDDIRSAGG [r13_354_TrROS] 1.1 kcal/mol

For SAGGSAGGLVIRNPDTNELIELKPGEELTITVTVEAPPAEEETTTETETRTLTLTVRLPEEAEESAGGSAGG [r6_273_TrROS_Hall] , what is its reported folding stability dG unfold? -0.0133 kcal/mol

What does the data say about its folding stability dG unfold? Entry: SAGGSAGGSAGGKKYKVVSIEKTKDYVRITIYNEETGELKTFTFPPGSTVTIKPGDTLTSAGGSAGGSAGGS [r10_834_TrROS_Hall] 4.42 kcal/mol

Can you look up the measured folding stability dG unfold of SAGGSAGGKIKPGEKVKVKVKIKNKNGEVFEATATVVDGKIFIEVDGKIYEISADDIEEIEVEPSAGGSAGG [r6_132_TrROS_Hall] for me? 2.37 kcal/mol

Returns the measured folding stability dG unfold for the input sequence. Input: SAGGSTVTVTVRRRVRVEVNGELREFEVEVTVTVRLPPPPPVIELPPEQVTRIEWDEETQELRVEVDSAGGS [r8_28_TrROS_Hall] 3.28 kcal/mol

# lookup: folding stability dG unfold of SAGGSSSTPVSSSTFTTPDGVTVSVTTTLEPDASGNPYTVTTETFPDGTVTTTTYRNGETQTTTVASAGGSA [r2_182_JUSTAS] 1.34 kcal/mol

Any idea what folding stability dG unfold was measured for SNKIDKRIVSVTFYESLPNGSVKVNNLVFISTSDGKVRLVNAGEITIPLGDKTLSINIGEASSNVKLGKISA [r9_1113_TrMRF] ? 1.37 kcal/mol

// returns reported folding stability dG unfold for input SAGGSAGGKEVYKIKVKNAEIVDFDEETGELTIKLKETGKEIKIPLKAIKKIEITDDYIYIYVESAGGSAGG [r6_313_TrROS_Hall] 4.15 kcal/mol

Please report the recorded folding stability dG unfold for SAGGSAGGSAAVILPEGTLYFTLPDGSRAAATVDPATGTVHIRLYSPDGVPLAEADIPIDPSAGGSAGGSAG [r3_447_TrMRF] . 1.83 kcal/mol

May I ask what folding stability dG unfold has been recorded for SAGMMYKITIKTKNGEKIEIEIPAEELENLTEEQLKELAKELAKKLEEEGIEVEKVEVKIEPVKPEELSAGG [r19_334_TrROS_Hall] ? 3.04 kcal/mol

May I ask what folding stability dG unfold has been recorded for SADTLTVSDLMHKLMEEERKKNPEPWSPEDMQEWAKTAARKLADKEGIPIKDVEVEPTDGYPSITVKVPSAG [r14_147_TrROS] ? < -1 kcal/mol

Requested read-out: folding stability dG unfold. Entry: SAPPDDWKPVTIPILIPFDSVEDAKEWVIELANELAKKHGWRINIDVDIEPVPNRYYIKIPITIYVPKKSAG [r14_626_TrROS] 2.47 kcal/mol

Look up folding stability dG unfold: SAGGSAGGSAGENKPIKVLVFLEKEDEYYEELFEFDSPEEIEEWLKKIPKDYKVKKVIVFSAGGSAGGSAGG [r17_410_TrMRF] 3.61 kcal/mol

Entry SAGGSAGGSAGGLSPGDEIKIRIMIFYRDPGSGNMRPIQPFPITIKIEPPPPKPKDPNNNSAGGSAGGSAGG [r7_522_TrROS] has what folding stability dG unfold? 3.08 kcal/mol

# lookup: folding stability dG unfold of SAGGKVTLRAPVVVPKDKIEDFIDALREALEALGLKEFKDIEIKEIIEGDDYYIIDFEVTAEADLPELASAG [r5_575_TrMRF] 2.32 kcal/mol

Any idea what folding stability dG unfold was measured for SMTVSNPRGKTVTVTVTVTVDPNKKSVTVPVTIRTAGEELTFTFTVPKGVNKPVTFSLTVPLPPGSSVISSA [r9_973_JUSTAS] ? 3.63 kcal/mol

Give its folding stability dG unfold value. Item: SAGGSAMTLEELKGMPIRSWWPGGQKIEMPIKKIDLNDPMFEIKFGGEPIKIPFNHPMRIEIQPPKSAGGSA [r15_355_TrROS] -0.64 kcal/mol

Recorded folding stability dG unfold of SAGGSAGMMKVTTTPVSADTVRVTVTVPGGPFTVTVTQNGVPLLTRTVPADATLTITLPPNATVVGSAGGSA [r15_581_JUSTAS] , please. 1.94 kcal/mol

Field request: folding stability dG unfold | item: SAGGSAGGSTAKEIADKLGFDNVEIKPTKPVEQRKDPNGKWRRQYVYTIKIRNPDGREWTIPISAGGSAGGS [r12_221_TrROS] 0.528 kcal/mol

* * *

assay: folding stability dG unfold from trypsin proteolysis; higher = more stable
I'd appreciate it if you could supply folding stability dG unfold values for the items below.
Return type: number; implicit unit kcal/mol.

Given the entry SAGAKAEPGPSGRLRIYLPDEPIELDVTEDGTVTLTFPNGEKVEFPVEKEKAALVLAELNALGAVVVPQSAG [r5_753_TrMRF] , report its measured folding stability dG unfold. -0.367

Which folding stability dG unfold is listed for SAGGGKKTKYVLLTFNPKEVKAEDLEKEILKKGAEIYIGDKPIDPGKGVKEVMKANPNTTFLVKIYDSAGGS [r8_38_TrMRF] ? 1.11

Please look up its folding stability dG unfold: SAGMEEEEVVLKIRVKDPETGEEKTFEVKLKDIEKVEVDEDGNIRIYLKEDGKEITIPADKITEVELLSAGG [r19_416_TrROS_Hall] 3.15

# folding stability dG unfold lookup, item SAGDEALLERIRARAEAEAKAAGPDPTPLDYRVEVEPVEIDEETGTVKVRVTITAPDREVEREVTVPLVSAG [r5_53_JUSTAS] 0.315

What value of folding stability dG unfold has been recorded for this entry: KYELVATLSRPNPETGTVVNVSVYRFEDGSYRVLVDVSTFYRTPDGSLRTSSSRAVFLVPEDVDPRELVESS [r1_243_TrMRF] 2.75

What folding stability dG unfold value was documented for this sequence, SAGGSAGGRVVLSAEEIEKLKPGDEIELLVRDKETGEWRRVKARVVRIERVGDRVYVEIEIEPESAGGSAGG [r6_753_TrROS_Hall] ? 4.53

Which folding stability dG unfold value belongs to SAGGSAGGSITPEEAKALAEEIKKALGVPDVEVLEIRVERDPERDFYTADIVIRLPDGSVIRASAGGSAGGS [r12_508_TrMRF] ? 2.05

* * *

test: folding stability dG unfold from trypsin proteolysis; higher = more stable
recorded-metric: folding stability dG unfold (kcal/mol)
Respond with the bare value in kcal/mol.

Recorded folding stability dG unfold for SAGGSAGGSGSMSIPVGSPEALREYLRERLPPEADLSEEELEALVEELLAKASIDSDGRLHLASAGGSAGGS [r12_983_JUSTAS] , please? 1.65

Using the record for SAGGMKVKKIPVIVKILRKKDKKPIKEIPALAYKVDDKIYLVFEKPKDIKIAKEIAEKTGLPIEIYPSAGGS [r16_327_TrMRF] , report its folding stability dG unfold. 1.01

Entry SAGKNEVLKVDIEYDPETGIIRLKTTYPNGLKEEKLIFKIPGTGKWYTAWNSEYEEGKEYQDFGILPESAGG [r19_394_TrMRF] has what folding stability dG unfold? 1.98

# folding stability dG unfold lookup, item SAGGSAGGMTFTIPPGKPVTIRVYNRNGELIEEVTVTGAGARIHVSEIPGTGELKITRIDEIPPSAGGSAGG [r6_523_TrMRF] 2.33

Which folding stability dG unfold is reported for this sequence? SAGGSAGGSISIDPAKVLEVKTRANGQLLITTEDEVYVVDPSTGTVTKITKEEAEKLPEDVPLLSAGGSAGG [r6_890_JUSTAS] 1.9

May I ask what folding stability dG unfold has been recorded for SAGGSAGGGPPGTTTTTISTPDGPVTVTVSPTSVTVTRPGSNETVTSSGSPTTTLEEIAAEIAASAGGSAGG [r6_317_JUSTAS] ? 2.88

Using the record for SAGGSAVKIDPKTKVIEVKNPETGETYRISLPDVPPEDGVEVEVGDDKIIIKTPKGTKEIPIDKAKSAGGSA [r15_864_TrMRF] , report its folding stability dG unfold. -0.000856

What folding stability dG unfold value was documented for this sequence, SAGPRPIEIYVDPDGMINIRFPNNGREINIPIPKGAEIEIIELPDDYIVIEIKFGGETREFWIPPEDISAGG [r19_309_TrROS] ? 4.04

Item SAGGSAGGSAKYLVVGGKVIEIPSGGDAKIETTKDDRVKVTIDLPDDRKLEFTFPVPKWVGSAGGSAGGSAG [r3_207_TrMRF] has what recorded folding stability dG unfold? 0.514

Fill in: folding stability dG unfold of SFKLEKTITLPDYVLKIEVTFKPKPDKTVIAPIKVTIYDPVKKKPYTKELTKPFPPEDPLKFVEEALKEIFS [r1_171_TrMRF] is ___ 0.425

Give the measured folding stability dG unfold of SAGGSAGGSPRIVRVEVDPPPGGLGLARIEVEVVDPSTGVPRLERRTVPVPLGDWKKLLDFLGSAGGSAGGS [r12_691_TrMRF] . 2.06

Quick one: folding stability dG unfold of SAGGSAGGSAGGKKPITLTVLVTDPDGYLLQRTTTLTLDEDTNELTATTTVTRIPLEDLSAGGSAGGSAGGS [r10_1225_TrROS_Hall] ? 0.684

Report folding stability dG unfold for SMTVSNPRGKTVTVTVTVTVDPNKKSVTVPVTIRTAGEELTFTFTVPKGVNKPVTFSLTVPLPPGSSVISSA [r9_973_JUSTAS] please. 3

I am curious: what folding stability dG unfold value has been reported for SAGPTVRQETFGEKYRIEVEVSPDGTVKVKIVNENGEVTELEGKVEPGKPVVLPFPLDGHVVNVVVLPASAG [r5_237_TrMRF] ? 1.54
